Test: Pharmacokinetics in dog
Type: in vivo, Beagle Dog
Conditions: male, beagle, plasma, iv, single i.v. dose of 2 mg/kg

{"Sample Smiles": "CC(C)C[C@@H](NCC(=O)O)C(=O)N1CCC[C@H]1C(=O)NCc1ccc(C(=N)N)cc1", "AUC(0-inf) [ng·h/mL]": 4340}

###

Assay: Pharmacokinetics in dog
Assay type: in vivo, Beagle Dog
Conditions: male, beagle, plasma, iv, single i.v. dose of 2 mg/kg
Measured Endpoint: Cmax (ng/mL)

{"Compound": "CC(C)C[C@@H](NCC(=O)O)C(=O)N1CCC[C@H]1C(=O)NCc1ccc(C(=N)N)cc1 [Compound of Formula (V)]", "U": "ng/mL", "Value": 4040}

###

Assay: Pharmacokinetics in rat
Format: in vivo, SD Rat
Conditions: male, Sprague-Dawley, plasma, iv, single i.v. dose of 2 mg/kg

{"Sample Smiles": "CC(C)C[C@@H](NCC(=O)O)C(=O)N1CCC[C@H]1C(=O)NCc1ccc(C(=N)N)cc1", "AUC(0-inf) (ng·h/mL)": 2960}

###

Assay: Solubility tests at different pH values
Assay type: physicochemical
Settings: aqueous buffer, thermodynamic from solid, pH 6.3, buffered salt solution, 37° C.
Measured Endpoint: solubility at 1 h (mM)

{"Sample Smiles": "CCOC(=O)CN[C@H](CC(C)C)C(=O)N1CCC[C@H]1C(=O)NCc1ccc(C(N)=NC(=O)OCc2oc(=O)oc2C)cc1.Cl", "U": "mM", "Value": 3.99}
{"Sample Smiles": "CCCCCCOC(=O)N=C(N)c1ccc(CNC(=O)[C@@H]2CCCN2C(=O)[C@@H](CC(C)C)NCC(=O)OCC)cc1.Cl", "U": "mM", "Value": 3.72}
{"Sample Smiles": "CCOCCCOC(=O)N=C(N)c1ccc(CNC(=O)[C@@H]2CCCN2C(=O)[C@@H](CC(C)C)NCC(=O)OCC)cc1.Cl", "U": "mM", "Value": 3.35}

###

Assay: Pharmacokinetics in rat
Type: in vivo, SD Rat
Conditions: male, Sprague-Dawley, plasma, iv, single i.v. dose of 2 mg/kg

{"Sample Smiles": "CC(C)C[C@@H](NCC(=O)O)C(=O)N1CCC[C@H]1C(=O)NCc1ccc(C(=N)N)cc1", "Cmax [ng/mL]": 4720}

Recorded values, source patent US12209141B2.
